Measured values drawn from patent US8304419B2 for this set.

tested on: HIV wild type (WTRVA); test: HeLa cell assay, wild type virus (WTRVA); assay type: cell-based, HIV-1; parameters: scale not given here; conditions: Human immunodeficiency virus 1, HeLa, HeLa-CD4-LTR-β-gal cells, wild type virus; read-out: WTRVA activity level
pIC50: −log10 of the molar value. Where a name gives a salt, the structure may show the parent alone.
Value type: pIC50

>  <Compound>
COc1ccc(C(=O)NCc2ccc(Cl)c(Oc3cc(Cl)cc(C#N)c3)c2F)c(C)c1

>  <Measurement>
6.00 to 8.00

$$$$
>  <Compound>
N#Cc1cc(Cl)cc(Oc2c(Cl)ccc(CNC(=O)c3cc4cc(OC(F)(F)F)ccc4[nH]3)c2F)c1

>  <Measurement>
6.00 to 8.00

$$$$
>  <Compound>
N#Cc1cc(Cl)cc(Oc2c(Cl)ccc(CNC(=O)c3cccnc3)c2F)c1 [Example 94, trifluoroacetate]

>  <Measurement>
6.00 to 8.00

$$$$
>  <Compound>
N#Cc1cc(Cl)cc(Oc2c(Cl)ccc(CNC(=O)c3cc4ccc([N+](=O)[O-])cc4[nH]3)c2F)c1

>  <Measurement>
6.00 to 8.00

$$$$
>  <Compound>
N#Cc1cc(Cl)cc(Oc2c(Cl)ccc(CNC(=O)c3cc4ccccc4[nH]3)c2F)c1

>  <Measurement>
> 8.00

$$$$
>  <Compound>
COC(=O)c1ccc(C(=O)NCc2ccc(Cl)c(Oc3cc(Cl)cc(C#N)c3)c2)cc1

>  <Measurement>
< 6.00

$$$$
>  <Compound>
N#Cc1cc(Cl)cc(Oc2c(Cl)ccc(CNC(=O)c3cc4cccc([N+](=O)[O-])c4[nH]3)c2F)c1

>  <Measurement>
6.00 to 8.00

$$$$
>  <Compound>
N#Cc1cc(Cl)cc(Oc2c(Cl)ccc(CNC(=O)c3cc4cc(N(CC5CC5)CC5CC5)ccc4[nH]3)c2F)c1

>  <Measurement>
6.00 to 8.00

$$$$
>  <Compound>
CC(C)(C)OC(=O)N1CCO[C@@H](COc2ccc3[nH]c(C(=O)NCc4ccc(Cl)c(Oc5cc(Cl)cc(C#N)c5)c4F)cc3c2)C1

>  <Measurement>
6.00 to 8.00

$$$$
>  <Compound>
Cc1cc(C)c(C(=O)NCc2ccc(Cl)c(Oc3cc(Cl)cc(C#N)c3)c2F)[nH]1 [Example 62, trifluoroacetate]

>  <Measurement>
> 8.00

$$$$
>  <Compound>
N#Cc1cc(Cl)cc(Oc2c(Cl)ccc(CNC(=O)c3cc4ccccc4o3)c2F)c1 [Example 47, trifluoroacetate]

>  <Measurement>
6.00 to 8.00

$$$$
>  <Compound>
N#Cc1cc(Cl)cc(Oc2c(Cl)ccc(CNC(=O)c3cc4cc(O)ccc4[nH]3)c2F)c1

>  <Measurement>
> 8.00

$$$$
>  <Compound>
N#Cc1cc(Cl)cc(Oc2c(Cl)ccc(CNC(=O)c3snnc3-c3ccccc3)c2F)c1

>  <Measurement>
< 6.00

$$$$
